Values were extracted from patent US5162571A.

target: Thromboxane A2 (TXA2) receptor (Oryctolagus cuniculus); construct: contraction by TXA2 mimics U-44069 or U-46619; test: Thromboxane A2 (TXA2) receptor antagonism: inhibitory effect on contraction of rabbit aorta by TXA2-mimics; type: cell-based; details: 10^-7 M; addition of U-46619 (3×10^-8 M) (*)
Sequence (Q6WQI8 1-233): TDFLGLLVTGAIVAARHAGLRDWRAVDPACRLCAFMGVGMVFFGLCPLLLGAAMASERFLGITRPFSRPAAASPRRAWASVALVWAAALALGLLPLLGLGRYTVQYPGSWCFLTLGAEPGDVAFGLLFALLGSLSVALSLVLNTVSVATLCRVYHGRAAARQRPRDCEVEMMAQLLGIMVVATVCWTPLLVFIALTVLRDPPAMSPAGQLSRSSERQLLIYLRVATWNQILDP
MEASUREMENT KIND: inhibition at 0.1 µM (%)

// worked examples, inhibition at 0.1 µM included
COMPOUND: Cc1c(C)c2c(c(C(CCCCCC(=O)O)c3ccc(F)cc3)c1O)CCC2=O (stereo not shown) [Compound 37]
U: %
MEASUREMENT: 100
--
COMPOUND: C=CCON=Cc1c(C)c(C)c(O)c(C(CCCCCC(=O)O)c2ccc(F)cc2)c1C (stereo not shown) [Compound 52]
U: %
MEASUREMENT: 96

a = Cc1c(C)c(CO)c(C)c(C(CCCCCC(=O)O)c2ccc(F)cc2)c1O (stereo not shown) [Compound 32]
b = CC(=O)c1c(C)c(C)c(O)c(C(CCCCCC(=O)O)c2ccc(F)cc2)c1C (stereo not shown) [Compound 35]
QUERY: Lower value for measured inhibition at 0.1 µM? Options: a , b # reply format: chosen label
RESULT: b
(b: 23%, a: 95%)
